B1: HDV Ribozyme (parent)
chain: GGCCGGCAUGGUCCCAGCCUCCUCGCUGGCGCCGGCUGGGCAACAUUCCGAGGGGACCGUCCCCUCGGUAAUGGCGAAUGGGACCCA

# Variants of: B1
# EXPERIMENT_SUMMARY: self-cleavage, relative activity (ratio to wild type); higher = more cleavage; co-transcriptional
# maps each entry to its self-cleavage

INPUT_SEQUENCE	self-cleavage
GGCCGGCAUGGUCCCAGCCUCCUCGCUGGCGCCGGCUGGGCUACAUUCCGAGUGGACCGUCCCCUCGGUAAUGGCGAAUGGGACCCA [A42U G53U]	0.698
GGCCGGCAUGGCCCCAGCCUCCUCGCUGGCGCCGGCUGGGGAACAUUCCGAGGGGACCGUCCCCUCGGUAAUGGCGAAUGGGACCCA [U12C C41G]	0.289
GGCCGGCAUGGUAACAGCCUCCUCGCUGGCGCCGGCUGGGCAACAUUCCGAGGGGACCGUCCCCUCGGUAAUGGCGAAUGGGACCCA [C13A C14A]	0.128
GGCCGGCAUGGUCCGAGCCUCCUCGCUGGCGCUGGCUGGGCAACAUUCCGAGGGGACCGUCCCCUCGGUAAUGGCGAAUGGGACCCA [C15G C33U]	0.415
GGCCGGCAUGGUCCCAGCCUCCUCGCUGGCGCCGGCUGGGCAACAUUCCGAGGGGACCGUCCCCUCCGUAAUGGCGAAUGAGACCCA [G67C G81A]	0.369
GGCCGGCAUGGUCCCAGCCUCCUCGCUUGCGCCGGCUGGGCAACAUUCCGAGGGGACCGUCCCCUCGGUAAUGGCGAAUGGGUCCCA [G28U A83U]	0.0415
GGCCGGCAUGGUCCCAGCCUCCUCGCUGGCGCCGGCUGGGCAACAUUCCGAGGGGACCAUCCCCUCGGUAAUGGCGAAUGGGCCCCA [G59A A83C]	0.554
GGCCGGCAUCGUCCCAGCCUCCUCGCUGGCGCCGGCUGGGCAACAUUCCGAGGGGACCGUCCCCUAGGUAAUGGCGAAUGGGACCCA [G10C C66A]	0.848
GGCCGGCAUGGUCCCAGCCUCCUCGCUGGCGCCGGCUGGGCAACAUUCCGAGGGGCCCAUCCCCUCGGUAAUGGCGAAUGGGACCCA [A56C G59A]	1.05
GGCCGGCAUGGUCCCAGCCGCCUCGCUGGCGCAGGCUGGGCAACAUUCCGAGGGGACCGUCCCCUCGGUAAUGGCGAAUGGGACCCA [U20G C33A]	0.119
GGCCGGCAUGGUCCCAGCCUCCUCGCUGGCGCCGGCUGGGCAACAUUCCGAGGGGAGCGUCCCCUCGGUAAUGGCGUAUGGGACCCA [C57G A77U]	0.923
GGCCGGCAUGGUCCCAGCCUCCUCGCUGACGCCGGCUGGGCAACAUUCCGAGGGGACCGUCACCUCGGUAAUGGCGAAUGGGACCCA [G29A C62A]	0.391
GGCCGGCAUGGUCCCAGCCUCCUCGCUGGCGCCGGCUGGGCAACAUUCCGAGGGGACCGUCCCCUCGGUAAUGGUGAAUGGGACCCC [C75U A87C]	0.161
GGCCGGCAAGGUCCCAGCCUCCUCGCUGGCGCCGGCUGGGCAACAUUCCGAGGGGACCGUCCCCUCGGUAAUGGCGAAUGGGGCCCA [U9A A83G]	0.67
GGCCGGCAUGGGCCCAGCCUCCUCGCUGGCGCCGGCUGGGCAACAUUCCGAGGGGACCGUCCCCUCGGUAAUGGCGAAUGGGAUCCA [U12G C84U]	0.692
GGCCGGCAUGGUCCCACCCUCCUCGCUGGCGCCGGCUGGGCAACAUUCCGAGGGGACCGUCCACUCGGUAAUGGCGAAUGGGACCCA [G17C C63A]	0.306
GGCCGGCAUGGUUCCAGCCUCCUAGCUGGCGCCGGCUGGGCAACAUUCCGAGGGGACCGUCCCCUCGGUAAUGGCGAAUGGGACCCA [C13U C24A]	0.381
GGCCGGCAUGGUCCCAGCCUCCUCGCUGGCAGCGGCUGGGCAACAUUCCGAGGGGACCGUCCCCUCGGUAAUGGCGAAUGGGACCCA [G31A C32G]	0.198
GGCCGGCAUGGUCCCAGCAUCCUCGCUGGCGCCGGCUGGGCACCAUUCCGAGGGGACCGUCCCCUCGGUAAUGGCGAAUGGGACCCA [C19A A43C]	0.0665
GGCCGGCAUGGUCCCAGCCUCCUCUCUGGCGCCGGCUGGGCAACAUUCGGAGGGGACCGUCCCCUCGGUAAUGGCGAAUGGGACCCA [G25U C49G]	0
GGCCGGCAUGGUCCCAGCCUCCUUGCUGGCGCCGGCUGGGCAACAUUCCGAGGGGACCGUCCCCUCGGUAAUGACGAAUGGGACCCA [C24U G74A]	0.0639
GGCCGGCAUAGUCCCAGCCUCCUCGCUGGCCCCGGCUGGGCAACAUUCCGAGGGGACCGUCCCCUCGGUAAUGGCGAAUGGGACCCA [G10A G31C]	0.198
